Where these numbers come from: patent US7163946B2

Assignment: determine reported EC50 for the given compounds.
Molecular target: hPR (Homo sapiens)
Assay: hPR cotransfection assay in CV-1 cells, agonist mode
Assay type: cell-based
Conditions: Tables 3 and 4, values without footnote; read-out: hPR agonist potencies (EC50 in nM) in the cotransfection assay
Give bare numbers, in nM.

CC1=CC(C)(C)Nc2ccc3c(c21)/C(=C/c1cc(F)ccc1F)Oc1ccc(O)cc1-3 [Formula II X=9-OH 2,5-diF-Ph, reference compound]    10
CC1=CC(C)(C)Nc2ccc3c(c21)/C(=C/c1ccccc1)Oc1c(F)cc(F)cc1-3    4.9
CC1=CC(C)(C)Nc2ccc3c(c21)/C(=C/c1cc(F)ccc1F)Oc1ccc(F)cc1-3 [Formula II X=9-F 2,5-diF-Ph, reference compound]    3
COc1ccc2c(c1)-c1ccc3c(c1/C(=C/c1ccccc1C)O2)C(C)=CC(C)(C)N3 [Formula II X=9-OMe 2-Me-Ph, reference compound]    67.5

For every record below, what is its EC50?
1. CCC1Oc2c(F)cc(F)cc2-c2ccc3c(c21)C(C)=CC(C)(C)N3 (racemic)
2. CC1=CC(C)(C)Nc2ccc3c(c21)C(c1cccc(C(F)(F)F)c1)Oc1ccc(Cl)cc1-3 (stereo not drawn) [Formula I X=9-Cl 3-CF3-Ph, reference compound]

## Output
1: 6.93; 2: 7.4

* * *

Assignment: determine reported pIC50 for the given molecules.
Molecular target: hPR (Homo sapiens, UniProt P06401)
Sequence (P06401 1-933): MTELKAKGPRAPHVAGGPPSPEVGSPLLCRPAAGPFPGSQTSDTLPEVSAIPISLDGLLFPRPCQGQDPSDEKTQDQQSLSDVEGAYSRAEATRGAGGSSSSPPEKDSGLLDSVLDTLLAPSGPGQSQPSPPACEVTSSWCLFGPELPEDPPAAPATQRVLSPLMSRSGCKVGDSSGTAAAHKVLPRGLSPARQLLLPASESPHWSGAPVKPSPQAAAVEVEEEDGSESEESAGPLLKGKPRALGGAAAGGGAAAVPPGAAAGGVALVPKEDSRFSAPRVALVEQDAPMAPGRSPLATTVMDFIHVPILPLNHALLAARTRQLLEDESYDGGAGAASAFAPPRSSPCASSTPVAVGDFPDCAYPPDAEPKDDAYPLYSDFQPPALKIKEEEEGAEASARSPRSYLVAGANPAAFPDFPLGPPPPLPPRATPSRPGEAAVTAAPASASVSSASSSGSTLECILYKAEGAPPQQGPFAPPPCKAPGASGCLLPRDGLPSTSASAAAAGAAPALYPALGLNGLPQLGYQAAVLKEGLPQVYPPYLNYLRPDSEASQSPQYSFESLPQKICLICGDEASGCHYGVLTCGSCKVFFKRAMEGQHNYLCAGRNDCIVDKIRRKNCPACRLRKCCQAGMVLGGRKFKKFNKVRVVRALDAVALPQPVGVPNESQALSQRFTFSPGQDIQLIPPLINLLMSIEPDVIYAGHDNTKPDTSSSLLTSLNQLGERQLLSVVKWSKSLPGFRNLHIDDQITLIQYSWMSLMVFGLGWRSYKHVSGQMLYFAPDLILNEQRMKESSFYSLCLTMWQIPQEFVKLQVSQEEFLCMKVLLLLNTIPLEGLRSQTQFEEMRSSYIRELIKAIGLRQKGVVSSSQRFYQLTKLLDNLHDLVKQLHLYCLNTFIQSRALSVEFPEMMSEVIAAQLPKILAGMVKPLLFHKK
Assay: hPR cotransfection assay in CV-1 cells, antagonist mode
Format: cell-based
Details: CV-1 cells
pIC50: −log10 of the molar value.

Consider the following illustrative entries.
COc1ccc(F)cc1/C=C1\Oc2c(F)cc(F)cc2-c2ccc3c(c21)C(C)=CC(C)(C)N3    < 5.00
CC1=CC(C)(C)Nc2ccc3c(c21)/C(=C/c1cc(F)ccc1C)Oc1c(F)cc(F)cc1-3    < 5.00

For every record below, what is its pIC50?
1. CC1=CC(C)(C)Nc2ccc3c(c21)C(CC(=O)c1ccccc1)Oc1c(F)cc(F)cc1-3 (racemic)
2. COc1ccccc1/C=C1\Oc2c(F)cc(F)cc2-c2ccc3c(c21)C(C)=CC(C)(C)N3
3. CC1=CC(C)(C)Nc2ccc3c(c21)C(c1cc2ccccc2s1)Oc1c(F)cc(F)cc1-3 (racemic)
4. CC1=CC(C)(C)Nc2ccc3c(c21)C(c1ccccc1)Oc1c(F)cc(F)cc1-3 (racemic)
5. CC1=CC(C)(C)Nc2ccc3c(c21)/C(=C/c1cccs1)Oc1c(F)cc(F)cc1-3

## Output
[7.38, "< 5.00", "< 5.00", "< 5.00", "< 5.00"]
